- Procedure Text: PK study of the 12 alkaloids in rat plasma after oral administration of ZJ and FZJ extract (LC–MS/MS)
- Assay type: in vivo
- Condition Notes: rat, in vivo, po, 3.76 g/kg
Each entry below lists one item and its recorded MRT last value.

# Compound, Unit Abbreviation, MRT last
data = [
    ("COc1cc2c(cc1OC)-c1cc3ccc(OC)c(OC)c3c[n+]1CC2", "h", 3.86),
    ("C[n+]1c2n(c(=O)c3ccccc31)CCc1c-2[nH]c2ccccc12 [dehydroevodiamine]", "h", 4.66),
    ("c1c2c(cc3c1OCO3)-c1cc3ccc4c(c3c[n+]1CC2)OCO4", "h", 4.18),
]

* * *

- Procedure Text: Stability of analytes in rat plasma under storage conditions
- Format: physicochemical
- Condition Notes: rat plasma, medium QC concentration, n = 6

# Molecule, Stability RE, 3 freeze-thaw cycles
rows = [
    ("COc1cc2c(cc1OC)-c1cc3ccc4c(c3c(=O)n1CC2)OCO4 [8-oxoepiberberine]", "0.37%"),
    ("C[n+]1c2n(c(=O)c3ccccc31)CCc1c-2[nH]c2ccccc12 [dehydroevodiamine]", "14.45%"),
    ("Cn1c(=O)n(CCC2(O)C(=O)Nc3ccccc32)c(=O)c2ccccc21 (centres unmarked) [wuchuyuamide-I]", "−14.69%"),
    ("CCCCC=CCCCCCCCc1cc(=O)c2ccccc2n1C", "3.44%"),
    ("COc1cc2c(cc1OC)-c1cc3ccc4c(c3c[n+]1CC2)OCO4 [epiberberine]", "−6.12%"),
    ("c1c2c(cc3c1OCO3)-c1cc3ccc4c(c3c[n+]1CC2)OCO4", "5.77%"),
    ("O=c1c2c3c(ccc2cc2n1CCc1cc4c(cc1-2)OCO4)OCO3", "7.48%"),
    ("O=C1NCCc2cc3c(cc21)OCO3 [noroxyhydrastinine]", "11.57%"),
    ("COc1cc2c(cc1OC)C(=O)NCC2", "3.89%"),
    ("COc1ccc2cc3[n+](cc2c1OC)CCc1cc2c(cc1-3)OCO2", "−1.36%"),
    ("COc1cc2c(cc1OC)-c1cc3ccc(OC)c(OC)c3c[n+]1CC2", "−7.2%"),
]

* * *

This listing pairs molecules with measured MRT inf.
- Procedure Text: PK study of the 12 alkaloids in rat plasma after oral administration of ZJ and FZJ extract (LC–MS/MS)
- Type: in vivo
- Condition Notes: rat, in vivo, po, 3.38 g/kg

# Molecule, MRT inf [h]
records = [
    ("COc1cc2c(cc1OC)-c1cc3ccc(OC)c(OC)c3c[n+]1CC2", 8.75),
    ("c1c2c(cc3c1OCO3)-c1cc3ccc4c(c3c[n+]1CC2)OCO4", 12.3),
    ("C[n+]1c2n(c(=O)c3ccccc31)CCc1c-2[nH]c2ccccc12 [dehydroevodiamine]", 4.71),
]

* * *

Reported AIC (Akaike's information criterion method), two-compartment model fitting is given for each of the following molecules.
- Procedure Text: Two-compartment model fitting of C–T curves (DAS 2.0)
- Assay type: in vivo, rat
- Condition Notes: oral ZJ extract
Observation Type: AIC (Akaike's information criterion method), two-compartment model fitting

# Molecule, Test Result
measured = [
    ("O=C1NCCc2cc3c(cc21)OCO3 [noroxyhydrastinine]", 118.137),
    ("CCCCC=CCCCCCCCc1cc(=O)c2ccccc2n1C", 78.232),
    ("COc1cc2c(cc1OC)C(=O)NCC2", 85.431),
    ("Cn1c(=O)n(CCC2(O)C(=O)Nc3ccccc32)c(=O)c2ccccc21 (stereo not shown) [wuchuyuamide-I]", 35.057),
]
